- Tested on: MCF7
- Experiment Description: Growth inhibition of human MCF7 cells after 48 hrs
- Assay type: functional
- Condition Label: MCF7, 48 h
Test Readout: GI50 (nM)
One number for each entry, in nM.

COc1ccc(N(CC(=O)NCCC[Te]c2ccccc2)C(=O)CNC(=O)OC(C)(C)C)cc1 = 2570
COc1ccc(N(CC(=O)NCCC[Te]c2ccccc2)C(=O)c2ccccc2)cc1 = 3160
COc1ccc(N(CC(=O)NCCC[Te]c2ccccc2)C(=O)CCSC2=C(C)C(=O)c3ccccc3C2=O)cc1 = 490

# ---- query compound ----
Form field GI50 for item `CC1=C(SCCC(=O)OCC(=O)NCCC[Te]c2ccccc2)C(=O)c2ccccc2C1=O` on MCF7: 2950
